Give measured AC50 for each item. Keep answers brief.
- target: Beta-1 adrenergic receptor (Homo sapiens, UniProt P08588); further: assay procedure not described here
- Sequence (P08588 whole entry): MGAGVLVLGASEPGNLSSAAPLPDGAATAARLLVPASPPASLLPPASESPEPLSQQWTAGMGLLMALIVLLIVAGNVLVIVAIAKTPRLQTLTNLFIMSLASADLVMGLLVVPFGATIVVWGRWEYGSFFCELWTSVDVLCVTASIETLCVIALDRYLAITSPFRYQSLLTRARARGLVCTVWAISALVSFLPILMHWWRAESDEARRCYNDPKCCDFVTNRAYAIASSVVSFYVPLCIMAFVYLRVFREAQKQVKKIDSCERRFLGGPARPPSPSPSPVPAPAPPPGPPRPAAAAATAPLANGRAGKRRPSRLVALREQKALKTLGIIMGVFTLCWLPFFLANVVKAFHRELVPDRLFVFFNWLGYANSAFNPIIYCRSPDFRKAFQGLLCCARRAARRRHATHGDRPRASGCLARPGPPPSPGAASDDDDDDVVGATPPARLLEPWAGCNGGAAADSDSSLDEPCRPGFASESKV
- Type: functional

Below, each entry is followed by its recorded AC50 result.
CCC(=O)O[C@]1(C(=O)SCF)[C@H](C)C[C@H]2[C@@H]3C[C@H](F)C4=CC(=O)C=C[C@]4(C)[C@@]3(F)[C@@H](O)C[C@@]21C [FLUTICASONE PROPIONATE]	> 30 µM
CC(S)C(=O)NCC(=O)O (configuration not stated)	> 30 µM
CCc1cc(C(N)=S)ccn1 [ETHIONAMIDE]	> 10 µM

// each listed molecule needs a value for AC50
1. COc1ccccc1Oc1c(NS(=O)(=O)c2ccc(C(C)(C)C)cc2)nc(-c2ncccn2)nc1OCCO
2. COc1ccc(-c2noc(CC(=O)O)c2-c2ccc(OC)cc2)cc1

["> 30 µM", "> 30 µM"]

For each of the molecules below, note its AC50.
1. CC(N)C12CC3CC(CC(C3)C1)C2 (configuration not stated)
2. CCOC(=O)c1cncn1[C@H](C)c1ccccc1 [ETOMIDATE]

["> 10 µM", "> 10 µM"]

Kindly give each listed record's AC50.
1. CCN1CCCC1CNC(=O)c1cc(S(=O)(=O)CC)c(N)cc1OC (configuration not stated) [AMISULPRIDE]
2. CNCc1ccc(-c2[nH]c3cc(F)cc4c3c2CCNC4=O)cc1

1: > 30 µM; 2: 40.1 µM

---

- target: UniProt P30556
- Sequence (P30556 whole entry): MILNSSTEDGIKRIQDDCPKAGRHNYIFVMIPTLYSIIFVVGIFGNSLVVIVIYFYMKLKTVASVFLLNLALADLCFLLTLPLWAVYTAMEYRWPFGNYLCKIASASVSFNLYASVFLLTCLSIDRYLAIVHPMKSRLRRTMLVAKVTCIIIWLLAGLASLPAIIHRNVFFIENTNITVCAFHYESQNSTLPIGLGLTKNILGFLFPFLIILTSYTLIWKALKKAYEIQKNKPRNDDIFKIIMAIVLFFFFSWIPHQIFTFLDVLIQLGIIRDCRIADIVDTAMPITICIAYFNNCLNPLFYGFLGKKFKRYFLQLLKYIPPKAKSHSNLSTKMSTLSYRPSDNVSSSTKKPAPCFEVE
result_type: AC50

C[C@@H](Oc1cc(-c2cnn(C3CCNCC3)c2)cnc1N)c1c(Cl)ccc(F)c1Cl	29 µM
Clc1ccc2c(N3CCN(CCCN4CCN(c5ccnc6cc(Cl)ccc56)CC4)CC3)ccnc2c1	> 30 µM

Can you give me AC50 for all of these, one by one?
1. CC(C)Cc1ccc(C(C)C(=O)O)cc1 (configuration not stated)
2. CN1C(C(=O)Nc2ccccn2)=C(O)c2ccccc2S1(=O)=O
3. CN1C[C@H](C(=O)N[C@]2(C)O[C@@]3(O)[C@@H]4CCCN4C(=O)[C@H](Cc4ccccc4)N3C2=O)C=C2c3cccc4[nH]cc(c34)C[C@H]21
4. CC(N)C12CC3CC(CC(C3)C1)C2 (configuration not stated)
5. CN1CCN(C2=Nc3ccccc3Oc3ccc(Cl)cc32)CC1

1. > 30 µM
2. > 30 µM
3. > 30 µM
4. > 10 µM
5. > 30 µM

Batch lookup, AC50 per entry.
1. COc1cc(N)c(Cl)cc1C(=O)NC1CCN(Cc2ccccc2)CC1 [CLEBOPRIDE]
2. CC(C)[C@H](N)C(=O)OCC(CO)OCn1cnc2c(=O)nc(N)[nH]c21 (some centres not stated)
3. CC(C(=O)O)c1ccc(CC2CCCC2=O)cc1 (configuration not stated)
4. CO[C@H]1/C=C/O[C@@]2(C)Oc3c(C)c(O)c4c(O)c(c(/C=N/N5CCN(C)CC5)c(O)c4c3C2=O)NC(=O)/C(C)=C\C=C\[C@H](C)[C@H](O)[C@@H](C)[C@@H](O)[C@@H](C)[C@H](OC(C)=O)[C@@H]1C

1: > 30 µM; 2: > 30 µM; 3: > 30 µM; 4: 19.4 µM

Please go through the list and note AC50 for each compound.
1. NC1CCN(c2nc3c(cc2F)c(=O)c(C(=O)O)cn3-c2ccc(F)cc2F)C1 (configuration not stated)
2. CCCN(CCC)C(=O)Cc1c(-c2ccc(Cl)cc2)nc2ccc(Cl)cn12

["> 30 µM", "> 30 µM"]

Please give AC50 for each item listed below.
1. O=C1C(CC[S+]([O-])c2ccccc2)C(=O)N(c2ccccc2)N1c1ccccc1 (configuration not stated)
2. CCC(C)C1(CC)C(=O)NC(=O)NC1=O (configuration not stated)
3. [H]/N=C(/N)N/C(=N/[H])NCCc1ccccc1
4. O=C1CN=C(c2ccccn2)c2cc(Br)ccc2N1

1. > 10 µM
2. > 30 µM
3. > 30 µM
4. > 10 µM

---

- target: UniProt:P32238
- Sequence (P32238 whole entry): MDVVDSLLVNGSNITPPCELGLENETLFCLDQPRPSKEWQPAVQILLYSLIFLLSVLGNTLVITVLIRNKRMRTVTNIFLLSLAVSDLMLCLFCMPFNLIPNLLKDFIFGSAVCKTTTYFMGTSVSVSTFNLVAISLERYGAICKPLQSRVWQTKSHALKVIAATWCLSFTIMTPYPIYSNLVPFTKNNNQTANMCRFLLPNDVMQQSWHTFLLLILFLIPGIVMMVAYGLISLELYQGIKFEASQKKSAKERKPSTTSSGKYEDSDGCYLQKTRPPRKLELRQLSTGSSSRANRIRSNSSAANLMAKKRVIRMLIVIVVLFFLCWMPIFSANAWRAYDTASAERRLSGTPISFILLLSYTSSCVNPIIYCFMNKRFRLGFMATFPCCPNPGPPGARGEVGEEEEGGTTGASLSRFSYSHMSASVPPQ
So I've got a bunch of molecules here, and I need their AC50 values.

O=C1CN=C(c2ccccc2)c2cc([N+](=O)[O-])ccc2N1	> 10 µM

Here are 5 molecules. What values of AC50 were reported for them?
1. COc1ccc(-c2noc(CC(=O)O)c2-c2ccc(OC)cc2)cc1
2. CN1C(C(=O)Nc2ccccn2)=C(O)c2ccccc2S1(=O)=O
3. C[C@]12CCC(=O)C(O)=C1CC[C@@H]1[C@@H]2CC[C@]2(C)C(=O)CC[C@@H]12
4. CC(=O)SC[C@@H](C)C(=O)N1CCC[C@H]1C(=O)N[C@@H](Cc1ccccc1)C(=O)O
5. CCN(CC)CCNC(=O)c1cc(S(C)(=O)=O)ccc1OC [TIAPRIDE]

1: > 30 µM; 2: > 10 µM; 3: > 30 µM; 4: > 30 µM; 5: > 30 µM

Quick request: AC50 for each listed item, please.
1. CCOC(=O)O[C@]1(C(=O)OCCl)CC[C@H]2[C@@H]3CCC4=CC(=O)C=C[C@]4(C)[C@H]3[C@@H](O)C[C@@]21C [LOTEPREDNOL ETABONATE]
2. Cc1cc2cc3c(C)cc(=O)oc3c(C)c2o1

["> 30 µM", "> 10 µM"]

---

Exercise: for every item that follows, state its recorded AC50.
- target: UniProt:P18825
- Sequence (P18825 whole entry): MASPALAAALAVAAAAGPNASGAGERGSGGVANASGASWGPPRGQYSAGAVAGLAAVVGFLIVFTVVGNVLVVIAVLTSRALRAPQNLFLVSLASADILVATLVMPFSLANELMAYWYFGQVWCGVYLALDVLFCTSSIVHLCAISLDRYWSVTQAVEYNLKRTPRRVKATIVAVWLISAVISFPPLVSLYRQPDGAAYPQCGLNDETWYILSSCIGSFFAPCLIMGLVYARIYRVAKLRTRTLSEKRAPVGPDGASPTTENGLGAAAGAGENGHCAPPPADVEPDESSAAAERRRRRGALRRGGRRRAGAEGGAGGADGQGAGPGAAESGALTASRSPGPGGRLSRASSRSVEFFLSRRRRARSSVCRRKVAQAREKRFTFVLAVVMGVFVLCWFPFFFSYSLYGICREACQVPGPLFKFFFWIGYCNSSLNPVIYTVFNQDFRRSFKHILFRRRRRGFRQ
- Type: functional
One number for each entry, in nM.

Some entries whose results are on file:
COc1ccc(CC2c3cc(OC)c(OC)cc3CC[N+]2(C)CCC(=O)OCCCCCOC(=O)CC[N+]2(C)CCc3cc(OC)c(OC)cc3C2Cc2ccc(OC)c(OC)c2)cc1OC (configuration not stated)	2700
C[C@@H](Oc1cc(-c2cnn(C3CCNCC3)c2)cnc1N)c1c(Cl)ccc(F)c1Cl [CRIZOTINIB]	1200

Given COc1ccccc1OCCNCC(O)COc1cccc2[nH]c3ccccc3c12 (configuration not stated) [CARVEDILOL] , respond with its AC50.
61

---

- target: Histamine H1 receptor (Homo sapiens); further: assay procedure not described here
- Sequence (P35367 whole entry): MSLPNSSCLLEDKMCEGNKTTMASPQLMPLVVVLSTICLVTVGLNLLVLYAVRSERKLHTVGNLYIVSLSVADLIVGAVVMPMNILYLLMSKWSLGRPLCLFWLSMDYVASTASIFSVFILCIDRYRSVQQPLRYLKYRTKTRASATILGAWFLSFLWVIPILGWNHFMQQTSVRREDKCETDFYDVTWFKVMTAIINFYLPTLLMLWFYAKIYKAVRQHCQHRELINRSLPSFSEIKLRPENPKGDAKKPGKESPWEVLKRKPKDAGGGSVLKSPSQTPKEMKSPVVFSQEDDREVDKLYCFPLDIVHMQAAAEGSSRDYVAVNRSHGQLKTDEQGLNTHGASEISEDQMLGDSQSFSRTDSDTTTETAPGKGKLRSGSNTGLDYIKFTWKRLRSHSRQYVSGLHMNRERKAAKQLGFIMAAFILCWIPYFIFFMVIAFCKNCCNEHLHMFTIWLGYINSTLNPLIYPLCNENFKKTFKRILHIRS
result_type: AC50

Solved entries:
COc1ccc(-c2noc(CC(=O)O)c2-c2ccc(OC)cc2)cc1 [MOFEZOLAC]	> 30 µM
C[C@]12CC[C@@H]3c4ccc(O)cc4C[C@@H](CCCCCCCCC[S+]([O-])CCCC(F)(F)C(F)(F)F)[C@H]3[C@@H]1CC[C@@H]2O (stereo partly drawn) [FULVESTRANT]	> 30 µM
C=CCNc1nc(NCC=C)nc(N2CCN(C(c3ccc(F)cc3)c3ccc(F)cc3)CC2)n1 [ALMITRINE]	> 30 µM

Give AC50 for each listed item.
1. CCN1CCCC1CNC(=O)c1cc(S(=O)(=O)CC)c(N)cc1OC (stereo not drawn) [AMISULPRIDE]
2. CCCC(CCC)C(N)=O [VALPROMIDE]
3. CCC[C@H](NC(=O)[C@@H]1[C@H]2CCC[C@H]2CN1C(=O)[C@@H](NC(=O)[C@@H](NC(=O)c1cnccn1)C1CCCCC1)C(C)(C)C)C(=O)C(=O)NC1CC1
4. CN1CCC(=C2c3ccccc3CCc3cccnc32)CC1 [AZATADINE]
5. CC(=O)N[C@@H](CS)C(=O)O [ACETYLCYSTEINE]

1: 30 µM; 2: > 10 µM; 3: > 10 µM; 4: 0.0066 µM; 5: > 30 µM

---

AC50, Sodium-dependent serotonin transporter (Homo sapiens, UniProt P31645): measured values

Below, each entry is followed by its recorded AC50 result.
NC(=O)OCC(O)COc1ccc(Cl)cc1 (centres undefined) [CHLORPHENESIN CARBAMATE]	> 30 µM
C/C=C/C/C=C/CCC(=O)[C@H]1O[C@H]1C(N)=O [CERULENIN]	> 30 µM
CN(CC1(C)CCCO1)S(=O)(=O)c1ccc(Cl)c(S(N)(=O)=O)c1 (centres undefined) [MEFRUSIDE]	> 30 µM
NCC(CC(=O)O)c1ccccc1 (centres undefined) [PHENIBUT]	> 30 µM
Cc1ccccc1C(=O)Nc1ccc(C(=O)N2CCCC(N(C)C)c3ccccc32)cc1 (centres undefined) [MOZAVAPTAN]	1.26 µM
COc1cc2c(cc1OC)CC(=O)N(CCCN(C)C[C@H]1Cc3cc(OC)c(OC)cc31)CC2 [IVABRADINE]	11.9 µM

Record AC50 per entry; entries follow.
1. CC(C)(O)CNc1nc(Nc2ccnc(C(F)(F)F)c2)nc(-c2cccc(C(F)(F)F)n2)n1 [ENASIDENIB]
2. O=[N+]([O-])c1ccc(O)c2ncccc12 [NITROXOLINE]

1. > 30 µM
2. > 30 µM

Give AC50 for each of the items listed below.
1. Cc1onc(-c2ccccc2)c1C(=O)N[C@@H]1C(=O)N2[C@@H]1SC(C)(C)[C@@H]2C(=O)O [OXACILLIN]
2. CN(C)CCOC(c1ccccc1)c1ccc(Br)cc1 (centres undefined) [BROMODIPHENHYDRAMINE]
3. CCCc1nc(C(C)(C)O)c(C(=O)O)n1Cc1ccc(-c2ccccc2-c2nnn[nH]2)cc1 [OLMESARTAN]
4. CC(N)Cc1ccc(O)cc1 (centres undefined) [HYDROXYAMPHETAMINE]
5. CCN(CCCc1ccccc1)CCCc1ccccc1 [ALVERINE]

["> 30 µM", "0.207 µM", "> 30 µM", "> 30 µM", "1.7 µM"]
